# Test system: 349418-098-R-PDC complex spheroid viability
# Assay Method Text: Anticancer human tumor 349418-098-R-PDC patient-derived lung adenocarcinoma cell line growth inhibition [RAS]
# Condition Set: second compound 0.000949 µM; first compound 0.0949 µM; stronger effect = lower value
Items are presented alongside their recorded viability, T/C.

Answer with viability, T/C of CCc1c2c(nc3ccc(O)cc13)-c1cc3c(c(=O)n1C2)COC(=O)[C@]3(O)CC + CCn1c(-c2cccnc2C(C)OC)c2c3cc(ccc31)N1CCOC(CC(NC(=O)C(C(C)C)N(C)C(=O)C3(F)CCN(C(=O)C#CC(C)(C)N(C)C)CC3)C(=O)N3CCCC(N3)C(=O)OCC(C)(C)C2)C1 measured for 349418-098-R-PDC complex spheroid viability.
2.54%

Answer with viability, T/C of CCc1c2c(nc3ccc(O)cc13)-c1cc3c(c(=O)n1C2)COC(=O)[C@]3(O)CC + CCn1c(-c2cc(N3CCN(C)CC3)cnc2C(C)OC)c2c3cc(ccc31)-c1csc(n1)CC(NC(=O)C1CC1C)C(=O)N1CCCC(N1)C(=O)OCC(C)(C)C2 measured for 349418-098-R-PDC complex spheroid viability.
2.77%

Answer with viability, T/C of CC1(C)CCC(Nc2ncc(C(F)(F)F)c(-c3c[nH]c4c(P(C)(C)=O)c(C#N)ccc34)n2)CN1 (centres undefined) + CCn1c(-c2cccnc2C(C)OC)c2c3cc(ccc31)N1CCOC(CC(NC(=O)C(C(C)C)N(C)C(=O)C3(F)CCN(C(=O)C#CC(C)(C)N(C)C)CC3)C(=O)N3CCCC(N3)C(=O)OCC(C)(C)C2)C1 measured for 349418-098-R-PDC complex spheroid viability.
8.61%

Now turn to the next compound.
Answer with viability, T/C of CC1(C)CCC(Nc2ncc(C(F)(F)F)c(-c3c[nH]c4c(P(C)(C)=O)c(C#N)ccc34)n2)CN1 (centres undefined) + CCn1c(-c2cc(N3CCN(C)CC3)cnc2C(C)OC)c2c3cc(ccc31)-c1csc(n1)CC(NC(=O)C1CC1C)C(=O)N1CCCC(N1)C(=O)OCC(C)(C)C2 measured for 349418-098-R-PDC complex spheroid viability.
8.11%

====

# Tested on: 349418-098-R-PDC complex spheroid viability
# Assay Method Text: Anticancer human tumor 349418-098-R-PDC cell line growth inhibition [RAS];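 note: spheroids exposed to compound for seven days before viability readout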
# Condition Set: second compound 0.0949 µM; first compound 0.00316 µM; stronger effect = lower value
Items are presented alongside their recorded viability, T/C.
Kindly answer with a numeric value in %, unit omitted.

Return reported viability, T/C. Input molecule: CC(C)n1nc(-c2ccc3oc(N)nc3c2)c2c(N)ncnc21 + CCn1c(-c2cc(N3CCN(C)CC3)cnc2C(C)OC)c2c3cc(ccc31)-c1csc(n1)CC(NC(=O)C1CC1C)C(=O)N1CCCC(N1)C(=O)OCC(C)(C)C2
39.3

Now turn to the next molecule.
Return reported viability, T/C. Input molecule: CCN1CCN(Cc2ccc(Nc3ncc(F)c(-c4cc(F)c5nc(C)n(C(C)C)c5c4)n3)nc2)CC1 + CCn1c(-c2cc(N3CCN(C)CC3)cnc2C(C)OC)c2c3cc(ccc31)-c1csc(n1)CC(NC(=O)C1CC1C)C(=O)N1CCCC(N1)C(=O)OCC(C)(C)C2
92.7

====

# System: 349418-098-R-PDC complex spheroid viability
# Assay Method Text: Anticancer human tumor 349418-098-R-PDC cell line growth inhibition [RAS];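 note: spheroids exposed to compound for seven days before viability readout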
# Condition Set: second compound 0.1 µM; first compound 3.16 µM; stronger effect = lower value
# Text: RAS pathway inhibitors in Combinations in Complex Spheroids A high-throughput screen of multi-cell type tumor spheroids was designed to identify active combinations of RAS pathway inhibitors and targeted small molecules. Complex spheroids include a stromal component modeled by human endothelial cells (HUVEC) and fibroblasts modeled by human mesenchymal stem cells (MSCs). […] Compounds. […] If the clinical Cmax for an agent had not been determined, the highest concentration tested was 10 microM. […]
Property Label: viability, T/C (%)
Kindly answer with a numeric value in %, unit omitted.

Return reported viability, T/C. Input compound: CC(=O)OC12COC1CC(O)C1(C)C(=O)C(O)C3=C(C)C(OC(=O)C(O)C(NC(=O)OC(C)(C)C)c4ccccc4)CC(O)(C(OC(=O)c4ccccc4)C21)C3(C)C (stereo not given) + C#Cc1c(F)ccc2cc(O)cc(-c3ncc4c(N5CC6CCC(C5)N6)nc(OCC56CCCN5CC(F)C6)nc4c3F)c12
24.4

Return reported viability, T/C. Input compound: NC1c2ccccc2OC12CCN(c1cnc3c(N4CCCc5ncccc54)n[nH]c3n1)CC2 (stereo not given) + C#Cc1c(F)ccc2cc(O)cc(-c3ncc4c(N5CC6CCC(C5)N6)nc(OCC56CCCN5CC(F)C6)nc4c3F)c12
94.3

Return reported viability, T/C. Input compound: NC1c2ccccc2OC12CCN(c1cnc3c(N4CCCc5ncccc54)n[nH]c3n1)CC2 (stereo not given) + C=CC(=O)N1CCN(c2nc(OCC3CCCN3C)nc3c(F)c(-c4nc(N)cc(C)c4C(F)(F)F)c(Cl)cc23)C(C)C1
119

More entries:
Return reported viability, T/C. Input compound: CC(C)NCC(C(=O)N1CCN(c2ncnc3c2C(C)CC3O)CC1)c1ccc(Cl)cc1 (stereo not given) + C#Cc1c(F)ccc2cc(O)cc(-c3ncc4c(N5CC6CCC(C5)N6)nc(OCC56CCCN5CC(F)C6)nc4c3F)c12
20.9

Return reported viability, T/C. Input compound: Cc1nc(N2CCC3(CC2)COC(C)C3N)c(CO)nc1Sc1ccnc(N)c1Cl (stereo not given) + C=CC(=O)N1CCN(c2nc(OCC3CCCN3C)nc3c(F)c(-c4nc(N)cc(C)c4C(F)(F)F)c(Cl)cc23)C(C)C1
81.2

The origin of these recorded values is PubChem BioAssay AID2060904.
